Data provenance is patent US20210261539A1.

# SUBJECT_OF_TEST: BRD4 BD1 (Homo sapiens)
# Construct: Protein BRD4 BD1 used in the assay was purchased from Active Motif (cat. 31380)
# ASSAY: HTRF in vitro enzyme activity assay, inhibition of BRD4 BD1 binding to acetylated H4 peptide
# ASSAY_CONDITIONS: IC50 values of the compounds against BRD4 BD1 binding; class symbols A/B/C
MEASURED_ATTRIBUTE: IC50

Worked cases, answers included:
C[C@H]1Oc2nc(N3C(=O)c4c([S+](C)[O-])cccc4C3(O)c3cccnc3)ccc2N(C)C1=O (single isomer, unassigned) [Example A129-P3]	10 to 100 nM
CCN1C(=O)[C@@H](C)Oc2nc(N3C(=O)c4ccccc4C3c3ccc(Cl)cc3)ccc21 (some centres unmarked) [Example A109-P3]	10 to 100 nM
CC1C(=O)N(CC(F)F)c2ccc(N3C(=O)c4ccccc4C3c3cccnc3)nc2N1C1CC1 (centres unmarked) [Example A53-P4]	≤ 10 nM
CC1C(=O)N(C)c2c(F)cc(N3C(=O)CCC3c3ccc(Cl)cc3)cc2N1C1CC1 (single isomer, unassigned) [Example A15-P1-1]	≤ 10 nM

// next entry
Need IC50, item CC1C(=O)N(C)c2ccc(N3C(=O)c4ccccc4C3c3ccc(F)nc3)nc2N1C1CC1 (single isomer, unassigned) [Example A67-P3]
≤ 10 nM
